Sourced from patent US20210347873A1

- target.under.test: extracellular domain of human BLyS protein (hBLyS-ECD), His-tagged, Ala134-Leu285 (human, UniProt Q9Y275 134-285)
- Sequence (Q9Y275 134-285): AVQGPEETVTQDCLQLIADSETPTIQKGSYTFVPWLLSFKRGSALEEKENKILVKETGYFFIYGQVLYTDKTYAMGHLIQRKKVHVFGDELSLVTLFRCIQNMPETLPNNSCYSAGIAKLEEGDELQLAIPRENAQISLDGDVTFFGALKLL
- measurement.protocol: cell-based or functional assay
assay.endpoint: OD450 nm (as headed), mouse B lymphocyte proliferation; antibody 0.00128 nM
Please reply with the value in numeric form only.

Some solved entries appear below for comparison.
c93C6F10D3 (antibody, V domains shown) VH: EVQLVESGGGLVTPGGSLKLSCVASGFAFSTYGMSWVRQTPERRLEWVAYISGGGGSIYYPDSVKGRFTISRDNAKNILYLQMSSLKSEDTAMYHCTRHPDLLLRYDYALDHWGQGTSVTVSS VL: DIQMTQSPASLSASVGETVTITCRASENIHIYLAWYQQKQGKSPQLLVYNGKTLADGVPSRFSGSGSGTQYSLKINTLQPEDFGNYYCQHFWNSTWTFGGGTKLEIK :: 4520
c8E7D9C7F5 (antibody, V domains shown, also called chimeric antibody c8E7D9C7F5) VH: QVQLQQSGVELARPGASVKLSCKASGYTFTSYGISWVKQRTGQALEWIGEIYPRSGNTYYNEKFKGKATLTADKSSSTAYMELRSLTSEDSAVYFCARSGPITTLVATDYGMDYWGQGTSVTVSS VL: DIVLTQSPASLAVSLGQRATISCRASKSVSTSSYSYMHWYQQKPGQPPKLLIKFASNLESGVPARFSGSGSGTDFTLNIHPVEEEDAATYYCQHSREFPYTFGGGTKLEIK :: 5150
c67A2E1D10 (antibody, V domains shown) VH: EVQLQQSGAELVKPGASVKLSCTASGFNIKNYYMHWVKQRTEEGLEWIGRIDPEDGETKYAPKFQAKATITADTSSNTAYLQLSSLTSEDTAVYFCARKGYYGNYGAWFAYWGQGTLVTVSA VL: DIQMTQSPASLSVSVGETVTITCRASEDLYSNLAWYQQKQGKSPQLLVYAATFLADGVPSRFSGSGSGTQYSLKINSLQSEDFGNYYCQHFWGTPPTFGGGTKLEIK :: 4810

Attention now shifts to the item below.
Q: Requested read-out: OD450 nm (as headed), mouse B lymphocyte proliferation; antibody 0.00128 nM. Entry: c97A3C2H4 (antibody, V domains shown, also called chimeric antibody c97A3C2H4) VH: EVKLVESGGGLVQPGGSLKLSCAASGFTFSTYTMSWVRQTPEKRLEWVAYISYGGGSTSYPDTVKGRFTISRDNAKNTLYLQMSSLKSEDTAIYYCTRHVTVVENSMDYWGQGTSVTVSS VL: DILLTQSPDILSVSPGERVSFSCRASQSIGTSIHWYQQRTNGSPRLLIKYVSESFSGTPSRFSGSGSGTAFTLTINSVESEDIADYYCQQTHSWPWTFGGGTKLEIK
A: 4870
